- Target Under Test: Amyloid-beta precursor protein (Homo sapiens)
- Test Name: Inhibition of self-induced amyloid beta (1-42) aggregation at 50 uM by thioflavin T fluorescence method
Here the recorded inhibition is given for each entry.

Solved cases (6 shown):
Cl.Cl.Cl.Cl.O=C(NCCCCCCNc1c2c(nc3cc(Cl)ccc13)CCCC2)c1ccc2nc(-c3ccc(Cl)cc3)c3c(c2c1)OCCC3 = 16.4%
Cl.Nc1c2c(nc3cc(Cl)ccc13)CCCC2 = 7.1%
O=C(NCCCCCCCCCCNc1c2c(nc3cc(Cl)ccc13)CCCC2)c1ccc2nc(-c3ccc(Cl)cc3)c3c(c2c1)OCCC3 = 20.5%
Cl.Cl.Cl.O=C(CCc1ccc2nc(-c3ccccc3)c3c(c2c1)OCCC3)NCCCCCCNc1c2c(nc3cc(Cl)ccc13)CCCC2 = 30.8%
Cl.Cl.Cl.O=C(CCc1ccc2nc(-c3ccccc3)c3c(c2c1)OCCC3)NCCCCNc1c2c(nc3cc(Cl)ccc13)CCCC2 = 45.3%
Cl.Cl.Cl.O=C(CCc1ccc2nc(-c3ccccc3)c3c(c2c1)OCCC3)NCCCCCCCNc1c2c(nc3cc(Cl)ccc13)CCCC2 = 49.1%

Recorded inhibition of O=C(NCCCCCCCCNc1c2c(nc3cc(Cl)ccc13)CCCC2)c1ccc2nc(-c3ccc(Cl)cc3)c3c(c2c1)OCCC3 , please.
21.5%
